Sourced from patent US20210292393A1

Answer each item with its documented kon.
# Target or test system: T1, SARS-CoV-2 spike protein (SARS-CoV-2, UniProt P0DTC2 14-1208)
# T1 construct: also called SARS-CoV-2 S protein; antigen of interest
# Assay: HT-SPR, Carterra LSA; mAb coupled to chip, antigen injected; 1:1 fit
Report as a plain number; the unit M⁻¹ s⁻¹ is understood.

# input Data request, read-out kon, for antibody 585 (antibody, V domains shown) VH: QVQLVESGGGVVQPGRSLRLSCAASGFTFATYAMHWVRQAPGKGLEWVALISHDGSNKHYADSVKGRFTISRDNSKKTLYLQMNSLRAEGTAIYYCARESLEAAAPPFDYWGQGTLVTVSS VL: SYELTQPPSVSVSPGQTATIICSGDKLGEKYASWYQQKPGQSPALVIYQDRKRPSGIPERFSGSNSGNTATLTISGTQAMDEADYYCQAWDSSNSVVFGGGTKLTVP
# output 185000

# input Data request, read-out kon, for antibody 528 (antibody, V domains shown, also called mAb 528) VH: QVQLVQSGAEVKKPGSSVKVSCKASGGTFNSNSISWVRQAPGQGLEWMGRIIPILDITMYARKFQGRVTISADKSTGTAYMDLSSLRSEDTAVYYCATDRDDSSGDYYYGMDVWGQGTTVTVSS VL: DIQMTQSPSSLSASVGDRVTITCRASLSISNYLNWYQQKPGKAPNLLIYAASTLQSGVPSRFSGSGSGTDFTLTISSLQPEDFATYYCQQTYITRWTFGQGTKVEIK
# output 560000
